Please consider the recorded pKi for opioid δ receptor (Rattus norvegicus) in what follows.
Field pKi (float): negative decimal logarithm of the concentration in molar.

INSERT INTO results (compound, measured_quantity, observed) VALUES
  ('CC(C)(C)C(=O)OCOC(=O)c1ccc2c3c([nH]c2c1)[C@@H]1Oc2c(O)ccc4c2[C@@]12CCN(CC1CC1)[C@H](C4)[C@]2(O)C3 [Compound I-2]', 'pKi', 8.77),
  ('CCCC(=O)OCOC(=O)c1ccc2c3c([nH]c2c1)[C@@H]1Oc2c(O)ccc4c2[C@@]12CCN(CC1CC1)[C@H](C4)[C@]2(O)C3 [Compound I-4]', 'pKi', 8.94);

Could you now look at the following compound, please?
Reported opioid δ receptor (Rattus norvegicus) pKi for item CC(OC(=O)c1ccc2c3c([nH]c2c1)[C@@H]1Oc2c(O)ccc4c2[C@@]12CCN(CC1CC1)[C@H](C4)[C@]2(O)C3)OC(=O)C(C)C (stereo partly drawn) [Compound I-9] was 8.90
